- EXPERIMENTAL_TARGET: Metabotropic glutamate receptor 8 (Rattus norvegicus) (UniProt P70579)
- Sequence (P70579 whole entry, looked up): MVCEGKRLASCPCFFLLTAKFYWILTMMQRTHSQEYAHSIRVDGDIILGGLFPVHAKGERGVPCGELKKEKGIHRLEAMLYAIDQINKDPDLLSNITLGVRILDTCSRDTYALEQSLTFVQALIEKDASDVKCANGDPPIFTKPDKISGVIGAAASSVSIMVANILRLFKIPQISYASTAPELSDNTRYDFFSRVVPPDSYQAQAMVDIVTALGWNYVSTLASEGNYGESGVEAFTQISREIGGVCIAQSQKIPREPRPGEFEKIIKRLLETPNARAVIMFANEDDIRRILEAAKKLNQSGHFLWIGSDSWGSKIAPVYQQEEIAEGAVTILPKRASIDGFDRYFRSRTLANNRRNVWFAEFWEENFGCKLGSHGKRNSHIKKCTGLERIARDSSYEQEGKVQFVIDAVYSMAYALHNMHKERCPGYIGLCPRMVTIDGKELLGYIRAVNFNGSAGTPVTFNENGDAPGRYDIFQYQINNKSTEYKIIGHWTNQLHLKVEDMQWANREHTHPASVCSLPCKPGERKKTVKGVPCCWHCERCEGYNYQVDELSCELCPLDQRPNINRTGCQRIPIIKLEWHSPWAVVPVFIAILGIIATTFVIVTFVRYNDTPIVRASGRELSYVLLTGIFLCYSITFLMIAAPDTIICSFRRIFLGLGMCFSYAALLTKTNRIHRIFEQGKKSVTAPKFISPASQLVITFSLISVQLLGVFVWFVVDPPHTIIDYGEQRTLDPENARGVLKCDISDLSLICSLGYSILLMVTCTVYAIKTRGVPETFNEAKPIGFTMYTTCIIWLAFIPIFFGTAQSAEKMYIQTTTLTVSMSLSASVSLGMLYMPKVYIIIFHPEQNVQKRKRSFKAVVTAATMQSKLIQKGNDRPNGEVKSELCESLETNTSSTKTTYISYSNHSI
- EXPERIMENT_NOTES: mGluR8 Gi/Go-coupled signaling modulation – cell-based, rat, thallium flux, HTS, primary screen (AID 488969)
- DETAILS: HEK293 rat mGluR8, GIRK thallium flux, FluoZin2; at 10 µM; stronger effect = higher value; submaximal glutamate (EC20) added with thallium
In all, about 110,000 compounds were measured (“z-score”: median about -0.1, highest 2% from about 2 on). This is one part of a sample in which the highest values are shown more often than they occur.
PROPERTY_MEASURED: z-score

In [3]: df
Out[3]:
                                   compound  value_observed
0  O=C(NNC(=O)c1sc2cccc(Cl)c2c1Cl)Nc1ccccc1        -0.00877
1    CC1=CC(=O)C=C(C)C1=NOS(=O)(=O)c1ccccc1           0.257
2     CC1=C/C(=N\OS(=O)(=O)c2ccccc2)C=CC1=O               3
3  CC(=O)NC(Cc1ccccc1C)C(=O)NC1CCN(c2ncccc2[N+](=O)[O-])CC1 (stereo not given)          -0.207
4    Cc1ccsc1C(=O)OCC(=O)N1CC(=O)Nc2ccccc21          -0.081

----------
- EXPERIMENTAL_TARGET: Metabotropic glutamate receptor 8 (Rattus norvegicus)
- EXPERIMENT_NOTES: mGluR8 Gi/Go-coupled signaling modulation – cell-based, rat, thallium flux, HTS, primary screen (AID 488969)
- DETAILS: HEK293 rat mGluR8, GIRK thallium flux, FluoZin2; at 10 µM; stronger effect = higher value; submaximal glutamate (EC20) added with thallium
Whole data set: some 110,000 compounds, median “z-score” near -0.1, cut for the highest 2% near 2. This is one part of a sample in which the highest values are shown more often than they occur.
Recorded measurements of z-score, one per entry
PROPERTY_MEASURED: z-score

                                   compound  value_observed
0   CN(C)CCSc1nc(-c2ccccc2)nc2c1COC(C)(C)C2          -0.143
1        S=C(Nc1ccc(Cl)cc1)c1nc2ccccc2[nH]1            6.95
2  Cc1ccc(Nc2nnc(SC/C(O)=C(\C#N)c3nc4ccccc4[nH]3)s2)c(C)c1          -0.166
3  COC(=O)C(C)C1Sc2ccccc2NC1=O (centres undefined)           -0.34
4         O=C(CSc1ccccn1)N1CCN(c2ccccc2)CC1          0.0291
5  Cc1ccc(CCNC(=O)C2CCCN(S(=O)(=O)c3c(C)noc3/C=C/N(C)C)C2)cc1 (centres undefined)          -0.519
6  O=C(/C(=C/c1ccc(Cl)cc1)c1nc2ccccc2[nH]1)c1ccccc1          -0.287
7         S=C1NC(c2ccccc2)=NCN1c1ccc(Cl)cc1            3.19
8        Cc1ccc(C)c(NC(=S)c2ccc3ccccc3n2)c1           0.103

----------
- EXPERIMENTAL_TARGET: Metabotropic glutamate receptor 8 (Rattus norvegicus)
- EXPERIMENT_NOTES: mGluR8 Gi/Go-coupled signaling modulation – cell-based, rat, thallium flux, HTS, primary screen (AID 488969)
- DETAILS: HEK293 rat mGluR8, GIRK (G protein-gated inwardly rectifying potassium channel) thallium flux, FluoZin2; at 10 µM; stronger effect = higher value; submaximal glutamate (EC20) added with thallium
In all, about 110,000 compounds were measured (“z-score”: median about -0.1, highest 2% from about 2 on). The sample as a whole holds a higher share of the highest values than the screen did.
The reader will find reported z-score values listed item by item below.
PROPERTY_MEASURED: z-score

>>> df
                                    compound                       experimental_target  property_measured  value_observed
 0  Cc1ccc2cc(C3CC(c4ccco4)=NN3S(=O)(=O)c3ccccc3)c(Cl)nc2c1 (centres undefined)  Metabotropic glutamate receptor 8 (Rattus norvegicus)            z-score           0.136
 1  S=c1[nH]nc(Cc2sc(-c3ccccc3)nc2-c2ccccc2)o1  Metabotropic glutamate receptor 8 (Rattus norvegicus)            z-score           0.186
 2  CCC(=O)NC(=S)Nc1ccc(NC(=O)COc2ccc(Cl)cc2Cl)cc1  Metabotropic glutamate receptor 8 (Rattus norvegicus)            z-score          -0.124
 3  CCC(=O)NC(=S)Nc1ccc(NC(=O)COc2ccc(Cl)c(C)c2)cc1  Metabotropic glutamate receptor 8 (Rattus norvegicus)            z-score         -0.0852
 4  O=C(/C=C/c1ccc(F)cc1)N1CCCN(C(=O)/C=C/c2ccc(F)cc2)CC1  Metabotropic glutamate receptor 8 (Rattus norvegicus)            z-score          -0.668
 5  CC(=O)Nc1ccc(SCC(=O)c2cc(C)n(-c3ccccc3F)c2C)cc1  Metabotropic glutamate receptor 8 (Rattus norvegicus)            z-score            4.45
 6                  CNC(=S)Nc1ccc(OC)c(OC)c1  Metabotropic glutamate receptor 8 (Rattus norvegicus)            z-score          0.0698
 7  NC(Cc1ccc2nsnc2c1)C(=O)O (centres undefined)  Metabotropic glutamate receptor 8 (Rattus norvegicus)            z-score           0.179
 8  Cc1ccc(NC(=O)c2cc(S(=O)(=O)c3ccccc3)ccc2Cl)cc1  Metabotropic glutamate receptor 8 (Rattus norvegicus)            z-score         -0.0678
 9  Cc1ccc(C(=O)CSc2nc3ccccc3c(=O)n2-c2ccccc2)s1  Metabotropic glutamate receptor 8 (Rattus norvegicus)            z-score           0.061
10        CCCCOC(=O)c1ccc(NC(=O)c2ccoc2C)cc1  Metabotropic glutamate receptor 8 (Rattus norvegicus)            z-score         -0.0292
11  Cn1c(=O)c([N+](=O)[O-])c(NCc2ccccc2)c2ccccc21  Metabotropic glutamate receptor 8 (Rattus norvegicus)            z-score          -0.608
12  CCOc1ccccc1C(=O)N(Cc1ccccc1)Cc1cc2cc3c(cc2[nH]c1=O)OCCO3  Metabotropic glutamate receptor 8 (Rattus norvegicus)            z-score           0.283
13  Cc1nc(NC(=O)CSc2ccc(-c3nc4ccccc4[nH]3)cn2)sc1C  Metabotropic glutamate receptor 8 (Rattus norvegicus)            z-score         -0.0534
14           Cc1ccc(S(=O)(=O)NCCc2ccncc2)cc1  Metabotropic glutamate receptor 8 (Rattus norvegicus)            z-score          -0.472
15  CCOCCn1c(=NC(=O)c2cc(Cl)sc2Cl)sc2cc(S(N)(=O)=O)ccc21  Metabotropic glutamate receptor 8 (Rattus norvegicus)            z-score         -0.0217
16  Cc1ccc(C(=O)Nc2nc(=O)n(C(=O)C3CC3)s2)cc1  Metabotropic glutamate receptor 8 (Rattus norvegicus)            z-score          -0.185
17  COC(=O)c1ccc(-n2c(C)cc(C(=O)CSc3ccc(NC(C)=O)cc3)c2C)cc1  Metabotropic glutamate receptor 8 (Rattus norvegicus)            z-score             3.5
18  CCCCn1c(SCC(=O)Nc2cc(C)on2)nnc1-c1cccnc1  Metabotropic glutamate receptor 8 (Rattus norvegicus)            z-score            2.11
19  Cc1cc(C(=O)N/N=C2\CCCC(C)C2)n[nH]1 (centres undefined)  Metabotropic glutamate receptor 8 (Rattus norvegicus)            z-score          -0.208
20  CCCC(=O)Nc1cccc(NC(=S)NC(=O)C(C)Oc2ccc(Cl)cc2Cl)c1 (centres undefined)  Metabotropic glutamate receptor 8 (Rattus norvegicus)            z-score         -0.0105
21  CCc1ccc(OCC(=O)NC(=S)Nc2ccc(F)cc2)c(Br)c1  Metabotropic glutamate receptor 8 (Rattus norvegicus)            z-score           0.182
22  CC(=O)Nc1ccc(SCC(=O)c2cc(C)n(-c3ccccc3)c2C)cc1  Metabotropic glutamate receptor 8 (Rattus norvegicus)            z-score           0.162
23  Cc1cc(C)c(S(=O)(=O)N(C)CC(=O)N2CCCCC2)c(C)c1  Metabotropic glutamate receptor 8 (Rattus norvegicus)            z-score           0.255
24                    COc1ccc(NC(=S)SC)cc1OC  Metabotropic glutamate receptor 8 (Rattus norvegicus)            z-score            3.35
25     Cc1cc(NC(=O)CSc2nnc(-c3cccnc3)n2N)no1  Metabotropic glutamate receptor 8 (Rattus norvegicus)            z-score          -0.404
26          C/C(=N\NC(=S)NCCc1ccccc1)c1cccs1  Metabotropic glutamate receptor 8 (Rattus norvegicus)            z-score            3.65
27       CCOC(=O)C(CC)(CC)/C(C)=N/NC(=O)CC#N  Metabotropic glutamate receptor 8 (Rattus norvegicus)            z-score           0.316
28  CCc1ccc(Nc2nnc(SCC(=O)N(C)CC(=O)Nc3ccccc3CC)s2)cc1  Metabotropic glutamate receptor 8 (Rattus norvegicus)            z-score          -0.439
29  O=C(COc1ccc(Cl)cc1Cl)Nc1nc2n(n1)C(c1ccccc1)CC(=O)N2 (centres undefined)  Metabotropic glutamate receptor 8 (Rattus norvegicus)            z-score           -0.56
30  CCOC(=O)c1cc2nc(-c3ccco3)cc(C(F)(F)F)n2n1  Metabotropic glutamate receptor 8 (Rattus norvegicus)            z-score           -1.72
31  O=C(COc1ccc(Cl)cc1Cl)NNC(=S)Nc1ccc(F)cc1  Metabotropic glutamate receptor 8 (Rattus norvegicus)            z-score            7.82
32  COC(=O)NC(=S)Nc1ccc(Oc2ccc(Cl)cc2)c(Cl)c1  Metabotropic glutamate receptor 8 (Rattus norvegicus)            z-score            1.29
33  O=C(CN1C(=O)NC2(CCc3ccccc32)C1=O)Nc1ccc(N2CCOCC2)cc1 (centres undefined)  Metabotropic glutamate receptor 8 (Rattus norvegicus)            z-score          -0.205
